- system under test: human Nav1.1 (Homo sapiens, UniProt P35498)
- Construct: host or cells: HEK293
- protocol notes: Amplification of Nav1.1-derived voltage-dependent sodium current (Nav1.1 current), cell line stably expressing human Nav1.1, automated patch clamp
- Assay type: cell-based
- experimental parameters: 10 μmol/L compound; change of the area under the curve of Nav1.1 current (Test Result 1)
Hi! Could you tag entries with Nav1.1 current amplification rate (%) below 200% as YES, and those at or above as NO? Much appreciated.

Could you please tell me whether Nav1.1 current amplification rate (%) recorded for CC1CCN(c2ccc(=O)n(CC(=O)Nc3cccc(C#N)c3)n2)CC1 is less than 200%? YES

Could you please tell me whether Nav1.1 current amplification rate (%) recorded for CC1CC=C(c2ccc(=O)n(CC(=O)Nc3ccc4oc(C(F)F)nc4c3)n2)CC1 (racemic) is less than 200%? NO

Could you please tell me whether Nav1.1 current amplification rate (%) recorded for CC1CC=C(c2ccc(=O)n(CC(=O)N3CCN(c4cnn(C)c4)CC3)n2)CC1 (stereo not shown) is less than 200%? YES

Could you please tell me whether Nav1.1 current amplification rate (%) recorded for CC1CC=C(c2ccc(=O)n(CC(=O)N3CCN(c4cncc(C(F)(F)F)c4)CC3)n2)CC1 (racemic) is less than 200%? NO

Could you please tell me whether Nav1.1 current amplification rate (%) recorded for Cc1ccc(N2CCN(C(=O)Cn3nc(C4=CCC(C)(C)CC4)ccc3=O)CC2)cn1 is less than 200%? YES

Could you please tell me whether Nav1.1 current amplification rate (%) recorded for COc1ccc2c(c1)CCN2C(=O)Cn1nc(C2=CCC(C)(C)CC2)ccc1=O is less than 200%? YES

Could you please tell me whether Nav1.1 current amplification rate (%) recorded for CC1CCN(c2ccc(=O)n(CC(=O)Nc3ccc4c(c3)NC(=O)C4)n2)CC1 is less than 200%? YES

Could you please tell me whether Nav1.1 current amplification rate (%) recorded for Cc1ccc(-c2nn(CC(=O)Nc3ccn4ccnc4c3)c(=O)c(C)c2C)cc1 is less than 200%? YES

Could you please tell me whether Nav1.1 current amplification rate (%) recorded for CC1(C)CC=C(c2ccc(=O)n(CC(=O)Nc3ccn4ccnc4c3)n2)C1 is less than 200%? YES

Could you please tell me whether Nav1.1 current amplification rate (%) recorded for Cc1nc2cc(NC(=O)Cn3nc(C4=CCC(C)CC4)ccc3=O)ccc2o1 (stereo not shown) is less than 200%? NO

Could you please tell me whether Nav1.1 current amplification rate (%) recorded for COc1cnc(C2=CCN(C(=O)Cn3nc(C4=CCC(C)CC4)ccc3=O)CC2)cn1 (racemic) is less than 200%? YES

Could you please tell me whether Nav1.1 current amplification rate (%) recorded for CC1CCN(c2ccc(=O)n(CC(=O)Nc3ccn4ccnc4c3)n2)CC1 is less than 200%? YES

Could you please tell me whether Nav1.1 current amplification rate (%) recorded for CC1(C)CC=C(c2ccc(=O)n(CC(=O)Nc3ccc4c(c3)OCC4)n2)CC1 is less than 200%? NO

Could you please tell me whether Nav1.1 current amplification rate (%) recorded for Cc1cc(NC(=O)Cn2nc(N3CCC(C)CC3)ccc2=O)cc2ncoc12 is less than 200%? YES

Could you please tell me whether Nav1.1 current amplification rate (%) recorded for COc1cc(=O)n(CC(=O)N2CCN(c3cncc(F)c3)CC2)nc1C1=CCC(C(F)(F)F)CC1 (racemic) is less than 200%? YES

Could you please tell me whether Nav1.1 current amplification rate (%) recorded for COc1nc2cc(NC(=O)Cn3nc(C4=CCC(C)CC4)ccc3=O)ccc2o1 (racemic) is less than 200%? NO

Could you please tell me whether Nav1.1 current amplification rate (%) recorded for CC1CC=C(c2ccc(=O)n(CC(=O)N3CC4(C3)CN(c3cccnc3)C4)n2)CC1 (stereo not shown) is less than 200%? YES

Could you please tell me whether Nav1.1 current amplification rate (%) recorded for CC1(C)CC=C(c2ccc(=O)n(CC(=O)Nc3ccn4nccc4c3)n2)CC1 is less than 200%? YES

Could you please tell me whether Nav1.1 current amplification rate (%) recorded for COc1cc(C2=CCC(C)CC2)nn(CC(=O)N2CCc3c(N4CCOCC4)cccc32)c1=O (racemic) is less than 200%? NO

Could you please tell me whether Nav1.1 current amplification rate (%) recorded for Cc1nc2cc(NC(=O)Cn3nc(N4CCC(C)CC4)ccc3=O)ccc2s1 is less than 200%? YES

Could you please tell me whether Nav1.1 current amplification rate (%) recorded for CC1CC=C(c2ccc(=O)n(CC(=O)N3CCN(c4nccs4)CC3)n2)CC1 (stereo not shown) is less than 200%? YES

Could you please tell me whether Nav1.1 current amplification rate (%) recorded for Cc1ccc(-c2ccc(=O)n(CC(=O)Nc3ccc4ocnc4c3)n2)s1 is less than 200%? YES

Could you please tell me whether Nav1.1 current amplification rate (%) recorded for CC1CCN(c2ccc(=O)n(CC(=O)Nc3ccc4nsnc4c3)n2)CC1 is less than 200%? NO

Could you please tell me whether Nav1.1 current amplification rate (%) recorded for CC1CC=C(c2ccc(=O)n(CC(=O)Nc3cc(F)c4ocnc4c3)n2)CC1 (racemic) is less than 200%? NO

Could you please tell me whether Nav1.1 current amplification rate (%) recorded for CC1CC=C(c2ccc(=O)n(CC(=O)N3CCC(c4ccncc4)CC3)n2)CC1 (racemic) is less than 200%? YES

Could you please tell me whether Nav1.1 current amplification rate (%) recorded for COc1cc(C2=CCC(C)CC2)nn(CC(=O)Nc2ccn3ccnc3c2)c1=O (stereo not shown) is less than 200%? NO

Could you please tell me whether Nav1.1 current amplification rate (%) recorded for CC1CCN(c2ccc(=O)n(CC(=O)Nc3ccnc(C#N)c3)n2)CC1 is less than 200%? YES

Could you please tell me whether Nav1.1 current amplification rate (%) recorded for CC1CC=C(c2ccc(=O)n(CC(=O)N3CCc4cc(N5CCOCC5)ccc43)n2)CC1 (racemic) is less than 200%? YES

* * *

Field: Nav1.5 current amplification rate (%). Provide a value for each of the compounds that follow.
- system under test: human Nav1.5 (Homo sapiens, UniProt Q14524)
- Construct: expressed in transfected cells; host or cells: CHO-K1 (T-REx System, ThermoFisher Scientific)
- Sequence (Q14524 1-2015 isoform Q14524-2): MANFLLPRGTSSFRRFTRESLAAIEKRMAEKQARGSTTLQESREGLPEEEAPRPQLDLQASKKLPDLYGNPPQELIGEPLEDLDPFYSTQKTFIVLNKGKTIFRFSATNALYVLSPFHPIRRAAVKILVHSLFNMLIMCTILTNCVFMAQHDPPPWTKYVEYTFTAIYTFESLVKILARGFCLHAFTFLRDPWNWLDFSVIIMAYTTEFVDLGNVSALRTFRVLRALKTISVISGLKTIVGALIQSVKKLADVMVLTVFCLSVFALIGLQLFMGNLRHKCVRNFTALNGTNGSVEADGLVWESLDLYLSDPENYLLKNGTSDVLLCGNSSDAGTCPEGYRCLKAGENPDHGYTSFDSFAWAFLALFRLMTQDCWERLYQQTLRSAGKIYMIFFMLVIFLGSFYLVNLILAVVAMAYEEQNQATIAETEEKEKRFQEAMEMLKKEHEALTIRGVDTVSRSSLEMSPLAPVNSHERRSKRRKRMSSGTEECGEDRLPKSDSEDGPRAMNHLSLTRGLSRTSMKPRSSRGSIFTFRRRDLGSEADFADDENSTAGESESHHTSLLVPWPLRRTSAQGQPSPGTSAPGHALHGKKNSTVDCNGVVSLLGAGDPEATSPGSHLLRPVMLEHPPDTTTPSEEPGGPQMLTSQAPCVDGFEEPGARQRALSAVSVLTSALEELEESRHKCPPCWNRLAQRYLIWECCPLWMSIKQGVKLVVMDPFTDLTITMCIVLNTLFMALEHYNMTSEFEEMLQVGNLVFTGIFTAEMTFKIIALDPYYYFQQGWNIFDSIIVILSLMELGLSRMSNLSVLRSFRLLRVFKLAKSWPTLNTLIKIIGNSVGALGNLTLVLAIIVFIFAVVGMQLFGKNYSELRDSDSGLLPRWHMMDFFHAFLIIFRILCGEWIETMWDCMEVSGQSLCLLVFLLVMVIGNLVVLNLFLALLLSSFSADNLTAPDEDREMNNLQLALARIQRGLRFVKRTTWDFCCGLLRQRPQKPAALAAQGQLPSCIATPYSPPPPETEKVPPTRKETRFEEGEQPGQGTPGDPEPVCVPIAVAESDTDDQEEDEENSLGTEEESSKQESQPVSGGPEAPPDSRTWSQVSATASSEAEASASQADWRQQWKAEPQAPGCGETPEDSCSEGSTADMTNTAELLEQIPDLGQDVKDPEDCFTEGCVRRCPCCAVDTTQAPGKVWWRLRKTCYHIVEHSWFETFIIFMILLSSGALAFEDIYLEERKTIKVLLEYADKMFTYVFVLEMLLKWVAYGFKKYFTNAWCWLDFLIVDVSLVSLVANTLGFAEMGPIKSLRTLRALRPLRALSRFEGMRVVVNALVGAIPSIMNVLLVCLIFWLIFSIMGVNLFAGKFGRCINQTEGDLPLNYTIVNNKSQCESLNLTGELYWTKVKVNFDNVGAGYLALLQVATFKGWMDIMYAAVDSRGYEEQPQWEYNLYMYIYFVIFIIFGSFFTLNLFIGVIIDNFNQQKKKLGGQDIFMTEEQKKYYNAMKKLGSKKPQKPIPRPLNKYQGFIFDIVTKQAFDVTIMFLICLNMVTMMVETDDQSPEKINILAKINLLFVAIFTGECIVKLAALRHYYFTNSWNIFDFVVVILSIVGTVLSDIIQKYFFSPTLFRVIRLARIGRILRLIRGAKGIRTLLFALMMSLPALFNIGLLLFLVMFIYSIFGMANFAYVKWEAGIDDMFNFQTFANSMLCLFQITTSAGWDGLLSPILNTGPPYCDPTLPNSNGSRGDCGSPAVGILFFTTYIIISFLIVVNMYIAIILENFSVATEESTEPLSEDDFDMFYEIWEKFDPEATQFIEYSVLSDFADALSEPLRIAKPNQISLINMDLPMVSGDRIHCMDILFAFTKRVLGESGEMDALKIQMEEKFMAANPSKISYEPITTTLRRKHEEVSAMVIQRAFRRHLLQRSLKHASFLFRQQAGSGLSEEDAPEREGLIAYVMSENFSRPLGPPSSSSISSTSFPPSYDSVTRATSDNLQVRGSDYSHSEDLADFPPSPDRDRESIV
- protocol notes: Amplification of Nav1.5-derived voltage-dependent sodium current (Nav1.5 current), cell line stably expressing human Nav1.5, automated patch clamp
- Assay type: cell-based
- experimental parameters: compound 3 μmol/L; CHO-K1 stably expressing human Nav1.5
Your answer is read as %, so omit the unit and give the number.

Quick one: Nav1.5 current amplification rate (%) of COc1cnc(C)c(N2CCN(C(=O)Cn3nc(C4=CCC(C)CC4)ccc3=O)CC2)c1 (stereo not shown) [Example 418] ? 7

Quick one: Nav1.5 current amplification rate (%) of CC1CC=C(c2ccc(=O)n(CC(=O)N3CCc4c(C5=CCN(C)C5)cccc43)n2)CC1 (racemic) [Example 267] ? 79

Quick one: Nav1.5 current amplification rate (%) of CC1CC=C(c2ccc(=O)n(CC(=O)N3CCN(c4cncc(OC(F)F)c4)CC3)n2)CC1 (stereo not shown) [Example 405] ? 14

Quick one: Nav1.5 current amplification rate (%) of CC1CC=C(c2ccc(=O)n(CC(=O)Nc3ccc4oc(CN5CCOCC5)nc4c3)n2)CC1 (racemic) [Example 331] ? 9

Quick one: Nav1.5 current amplification rate (%) of CC1(C)CC=C(c2ccc(=O)n(CC(=O)N3CCc4c(C5CN(C(=O)CO)C5)cccc43)n2)CC1 [Example 437] ? 194

Quick one: Nav1.5 current amplification rate (%) of CC1CC=C(c2ccc(=O)n(CC(=O)N3CCc4c(C5CN(C6CCOC6)C5)cccc43)n2)CC1 (racemic) [Example 305] ? 117

Quick one: Nav1.5 current amplification rate (%) of CC1CC=C(c2ccc(=O)n(CC(=O)Nc3ccc4oc(CN(C)C)nc4c3)n2)CC1 (racemic) [Example 324] ? 5

* * *

- system under test: human Nav1.5 (Homo sapiens, UniProt Q14524)
- Construct: expressed in transfected cells; host or cells: CHO-K1 (T-REx System, ThermoFisher Scientific)
- protocol notes: Amplification of Nav1.5-derived voltage-dependent sodium current (Nav1.5 current), cell line stably expressing human Nav1.5, automated patch clamp
- Assay type: cell-based
- experimental parameters: compound 1 μmol/L; CHO-K1 stably expressing human Nav1.5; read-out: Nav1.5 current amplification rate (%)
Field: activation at 1 µM. Provide a value for each of the compounds that follow.
Your answer is read as %, so omit the unit and give the number.

Quick one: activation at 1 µM of Cc1cc(=O)n(CC(=O)Nc2ccn3ncnc3c2)nc1C1=CCC(C)CC1 (stereo not drawn) [Example 502] ? 7

Quick one: activation at 1 µM of CC1(C)CC=C(c2ccc(=O)n(CC(=O)Nc3ccc4ncnn4c3)n2)CC1 [Example 428] ? 23

Quick one: activation at 1 µM of O=C(Cn1nc(C2=CCCCC2)ccc1=O)N1CCc2c(-c3cnccn3)cccc21 [Example 521] ? 9

Quick one: activation at 1 µM of CC1(C)CC=C(c2ccc(=O)n(CC(=O)Nc3ccn4ncnc4c3)n2)CC1 [Example 429] ? 28

Quick one: activation at 1 µM of Cc1cc(=O)n(CC(=O)Nc2ccn3ncnc3c2)nc1C1=CCC(C)(C)CC1 [Example 503] ? 10

Quick one: activation at 1 µM of O=C(Cn1nc(C2=CCCC2)ccc1=O)N1CCc2c(-c3ccnnc3)cccc21 [Example 523] ? 5

Quick one: activation at 1 µM of Cc1ccc(-c2ccc(=O)n(CC(=O)N3CCc4c(C5CN(C6COC6)C5)cccc43)n2)cc1 [Example 516] ? 13

Quick one: activation at 1 µM of CC1(C)CCN(c2ccc(=O)n(CC(=O)N3CCc4c(-c5ccnnc5)cccc43)n2)CC1 [Example 235] ? 7

Quick one: activation at 1 µM of O=C(Cn1nc(C2=CCCCC2)ccc1=O)N1CCc2c(Cn3ccnc3)cccc21 [Example 515] ? 287
